Tested on: MDA-MB-468
Test: NCI-60 single-dose antiproliferative screen
Format: cell-based
Settings: Homo sapiens, MDA-MB-468, 48 h, read-out: growth percent
Task for the reader: assign each of the following molecules its reported activity at 10 µM.

Give the measured activity at 10 µM for COc1cc(CNC(=O)CCCC/C=C/C(C)C)ccc1OCc1cn(-c2ccc(C(F)(F)F)cc2)nn1 [14g]
70.2%

Give the measured activity at 10 µM for COc1cc(CNC(=O)CCCC/C=C/C(C)C)ccc1OCc1cn(-c2ccc(Br)cc2)nn1 [14k]
68.2%

Give the measured activity at 10 µM for COc1cc(CNC(=O)CCCC/C=C/C(C)C)ccc1OCc1cn(-c2ccc(C)c(C)c2)nn1 [14p]
71.8%

Give the measured activity at 10 µM for COc1cc(CNC(=O)CCCC/C=C/C(C)C)ccc1OCc1cn(-c2ccc(Cl)c(Cl)c2)nn1 [14d]
71.6%

Give the measured activity at 10 µM for COc1cc(CNC(=O)CCCC/C=C/C(C)C)ccc1OCc1cn(-c2ccc(F)cc2)nn1 [14h]
68.2%
